# Target or system: Platelet-activating factor acetylhydrolase IB subunit alpha2 (Homo sapiens) (UniProt P68402)
# Sequence (P68402 whole entry, looked up): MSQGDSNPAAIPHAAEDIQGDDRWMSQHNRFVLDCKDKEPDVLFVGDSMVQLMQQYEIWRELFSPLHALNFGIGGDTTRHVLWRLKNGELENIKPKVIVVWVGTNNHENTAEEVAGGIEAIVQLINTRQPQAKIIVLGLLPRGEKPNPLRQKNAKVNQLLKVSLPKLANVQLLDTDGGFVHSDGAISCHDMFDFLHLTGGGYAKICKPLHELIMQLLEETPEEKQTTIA
# Protocol: inhibition of human PAFAH1B2 catalytic subunit – biochemical, fluorescence polarization, FP-rhodamine probe, triplicate, confirmation (AID 493034);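 also: 0% = enzyme with DMSO and 100% = wells lacking PAFAH1B2 protein; inhibitors lower polarization by leaving the probe unbound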
# Experimental conditions: recombinant PAFAH1B2, FP-rhodamine probe fluorescence polarization; at 3.39 µM; stronger effect = higher value
About 2,200 (92%) of roughly 2,400 compounds were called active. The set was probably picked from earlier hits. Some of the results follow.
Rule: inhibition under 20% gives false, otherwise true.

# example entries with known answers
O=C(Nc1sc(-c2ccccc2)cc1C(=O)O)c1ccccc1	true
Clc1ccc(COc2cccc(CNCc3ccncc3)c2)cc1	false
CCOC(=O)CSc1nnc(NC(=O)CN2CCN(C=O)CC2)s1	false
CCCCc1cc(=O)oc2cc(C)cc(OCC(=O)NC(Cc3ccc(Cl)cc3)C(=O)O)c12 (centres undefined)	true
COc1cc(/C=N/NC(=O)c2cc(C34CC5CC(CC(C5)C3)C4)[nH]n2)ccc1O	true

Decide: is the reported value of inhibition for CC(Oc1ccc2c(-c3ccccc3)cc(=O)oc2c1)C(=O)NC(Cc1c[nH]c2ccccc12)C(=O)O (centres undefined) equal to or greater than 20%?
true

Decide: is the reported value of inhibition for O=C(O)c1[nH]c2ccccc2c1C(c1c(F)cccc1Cl)c1c(C(=O)O)[nH]c2ccccc12 equal to or greater than 20%?
true

Decide: is the reported value of inhibition for O=C(O)c1[nH]c2ccccc2c1C(c1cccc(O)c1)c1c(C(=O)O)[nH]c2ccccc12 equal to or greater than 20%?
true

Decide: is the reported value of inhibition for O=C(COc1ccc2c(-c3ccccc3)cc(=O)oc2c1)N[C@@H](Cc1c[nH]c2ccc(O)cc12)C(=O)O equal to or greater than 20%?
true

====

# Target or system: Platelet-activating factor acetylhydrolase IB subunit alpha2 (Homo sapiens) (UniProt P68402)
# Protocol: inhibition of human PAFAH1B2 catalytic subunit – biochemical, fluorescence polarization, FP-rhodamine probe, triplicate, confirmation (AID 493034);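 also: 0% = enzyme with DMSO and 100% = wells lacking PAFAH1B2 protein; inhibitors lower polarization by leaving the probe unbound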
# Experimental conditions: recombinant PAFAH1B2, FP-rhodamine probe fluorescence polarization; at 3.39 µM; stronger effect = higher value
Among all 2,400 compounds or so, about 2,200 (92%) were called active. So high a share suggests a set chosen from earlier hits. This is one part of the list.
Rule: inhibition under 30% gives label 0, otherwise label 1.

CCN(Cc1ccccc1)C(=O)COC(=O)c1cc(S(=O)(=O)Nc2ccccc2OC)ccc1O	label 0
O=C(CCc1ccccc1)c1c(O)cc(O)cc1O	label 0
CN(C(=O)COC(=O)c1ccc(Cl)c(S(=O)(=O)NCc2ccccc2)c1)C1CCS(=O)(=O)C1 (stereo not given)	label 0
CN(CC(=O)Nc1ccc(C#N)cc1)Cc1ccc(Cl)cc1	label 0
C[C@H]1CN([C@@H](C)CO)C(=O)c2cccc(NC(=O)Nc3ccc(C(F)(F)F)cc3)c2O[C@@H]1CN(C)C(=O)Nc1ccc(F)cc1	label 1

# next compound below
Decide: is the reported value of inhibition for O=C(O)c1cccc(COc2ccc3c(c2)CCC3)c1 equal to or greater than 30%?
label 1

====

Kindly state inhibition for each of the entries shown.
# Target or system: Platelet-activating factor acetylhydrolase IB subunit alpha2 (Homo sapiens) (UniProt P68402)
# Protocol: inhibition of human PAFAH1B2 catalytic subunit – biochemical, fluorescence polarization, FP-rhodamine probe, triplicate, confirmation (AID 493034);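 also: 0% = enzyme with DMSO and 100% = wells lacking PAFAH1B2 protein; inhibitors lower polarization by leaving the probe unbound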
# Experimental conditions: recombinant PAFAH1B2, FP-rhodamine probe fluorescence polarization; at 3.39 µM; stronger effect = higher value
In all, about 2,400 compounds went through this assay and about 2,200 (92%) were called active. So high a share suggests a set chosen from earlier hits. The list shows a part of the results.
Numbers only, in %.

S=C(NCCc1ccc(Cl)cc1)NC1CCCCC1	22.8

Hi! Can you tell me inhibition for each of these molecules?
1. CCCCOc1ccc(CNC(=O)NS(=O)(=O)c2ccc(OCC(C)C)cc2)cc1
2. N=C(N)c1ccc(N=Nc2c(O)ccc3c2[nH]c2ccccc23)cc1

[57.7, 33.4]

Hi! Can you tell me inhibition for each of these molecules?
1. Cc1ccc(CNC(=O)Nc2ccc(Cl)cc2)cc1
2. O=C(CSc1ncn[nH]1)NCCc1ccc(Cl)cc1
3. CCOC(=O)c1sc(NC(=O)CN(CC(C)C)CC(C)C)c(C(=O)OCC)c1C

1: 1.92; 2: 18.2; 3: 6.46
